Values from the supplement of paper PMC10567573

test: protein stability index of a GFP-peptide fusion (GPS, HEK-293T) (PSI 1-6); higher = more stable; conditions: treatment: MLN4924 1 uM, 8 h; c terminus: a fixed tail appended;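 also: 24-mer peptide tiles fused after GFP, lentivirally expressed, FACS-sorted into six equal bins by GFP/DsRed ratio, decoded by Illumina sequencing, PSI is the read-weighted mean bin number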
observation_type: protein stability index
// response body must contain only the number

Worked examples, 6 sequences total:
| sequence_chain | protein stability index |
| --- | --- |
| SEALLYALVHDHQAYAHYLLATFP [ANKRD9] | 2.61 |
| EYGTCMCLVKGIFYHCSNDDEGDS [SPRY1] | 3.27 |
| GKVQDIKAREKDGKGRTASPINSP [FSD1] | 5.25 |
| AKAEGFTASTKNCMVGYDMGATRC [CPXM2] | 3.62 |
| MTEMSFLSSEVLVGDLMSPFDQSG [ATF4] | 3.24 |
| NMMKVLRGHQNWVYSCAFSPDSSM [WSB1] | 2.64 |

What measured protein stability index goes with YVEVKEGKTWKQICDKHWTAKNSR [LOXL2] ?
3.28

# repeat for SETLEQKPHFESSTVKTETISFGS [EPB41L3]
4.95

Same read-out for MNTEAEQQLLHHARNGNAEEVRQL [OSBPL1A] ?
5.47

Input MAEGSAVSDPQHAARLLRALSSFR [GAN]
3.3

// repeat for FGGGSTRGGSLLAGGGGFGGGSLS [KRT15] and report
3.11

SVGHNWRKRMGTRRGRHEQSPTSR [C22orf15] ?
4.49

Query QQACTHTKETEQLRSQLQTLKQQH [CCDC89] next
4.65

Similarly, GECRQMSSSSQIGNDSFQLQVTED [CLCN6] ?
5.09

Also, VSFSTGAGGWSNHHFCVILLGFLP [BET1L] please.
2.8

Follow-up item: REDKATIKCETSPPSSPRTLRLEK [PPFIA4]
5.45

====

test: protein stability index of a GFP-peptide fusion (GPS, HEK-293T) (PSI 1-6); higher = more stable; conditions: treatment: DMSO; c terminus: a fixed tail appended
observation_type: protein stability index

Past entries and their recorded results:
| sequence_chain | protein stability index |
| --- | --- |
| DILPRWAIIGWLLTTCTSNVAASN [INTS3] | 3.24 |
| SGKSEISELRRTMQALEIELQSQL [KRT17] | 3.58 |

Quick one: protein stability index for RWTSYRFSRVCRLHRGQLSLFCLE [TRIM35] ?
2.43

How about this sequence: NYQAHQSRVTMILFVLELEWVLST [WDFY2]
3.1

Now give it for DETHFGKMGSYYINRTFFFDVHPP [POMT2] too.
2.45

Can you handle NERMLESYLHAKKYLKPSGNMFPT [CARM1] next?
2.59

Request: AARNACRAGTEPSDAIRVVNAVLT [TRIP13]
3

====

# protein stability index per entry
test: protein stability index of a GFP-peptide fusion (GPS, HEK-293T) (PSI 1-6); higher = more stable; conditions: treatment: MLN4924 1 uM, 8 h; c terminus: a fixed tail appended

Some solved cases for reference:
| sequence_chain | protein stability index |
| --- | --- |
| SAMALVKHSVLLSASRKSAEQLRI [WEE1] | 2.16 |
| LTQTMHDLAGLGSETPKSQVGTLL [CDC25B] | 3.62 |
| PDSPATGAHWMRQLVSFQKLKLTN [TBX5] | 3 |

Give its protein stability index value. Item: VAPPAKQAQQKKAPAKKANSTTTA [BRD3]
5.26

Moving on to the next sequence: PDEERPLRRPRPVQRTQSVPVRRP [RASAL3]
5.21

Same read-out for LSPAQKDLYRDVMLENYSNLVSVG [ZNF649] ?
3.02

Can you handle DLIDNLKEAQYIRTERVEQAFRAI [PCMTD1] next?
2.27

# repeat for DNDPSCVHPIIKRRQCRPEIRMWQ [PHTF1]
2.5

Would you kindly repeat that for ASSPKGTIENILDNDPRDLIGDFS [CDC25A] ?
4.82

Please do the same for STDSGFCLDSPGPLDSKENLENPM [CDC25A] as well.
5.27

Please do the same for YQPKRYALSPKTTITMAHLLAARE [FAM98B] as well.
2.6

Further, for VDYPLHDLVLHTNYTATVRGLRGP [TNXB] ?
2.81

Next: LWSDPDDRGGWGISPRGAGYTFGQ [PPP2CA]
2.72

Input DFSGLTLDGALRTFLKAFPLMGET [PSD2]
2.05

Lookup DPVRQCAECALVSLKEAEFYDKQL [ZFYVE21]
3.67
